# Test system: DLD1
# protocol: TCF/Wnt firefly luciferase reporter signal relative to plate median (fraction of plate median); higher = higher Wnt reporter signal
# test context: 10 µM; treatment time 24 h; reporter: TCF4/Wnt
Structures can show the parent of a compound that is named as a salt.
Label scheme for TCF/Wnt firefly luciferase reporter signal: lower than 1 is 0 (no), 1 and above is 1 (yes).

{"compound": "CNC(=O)c1nn(C)c2c1C(C)(C)Cc1cnc(Nc3ccc(N4CCN(C)CC4)cc3)nc1-2", "class name": "0 (no)"}
{"compound": "Cc1ccc(NC(=O)c2cccc(C(C)(C)C#N)c2)cc1Nc1ccc2ncn(C)c(=O)c2c1", "class name": "0 (no)"}
{"compound": "Cn1cnc2c(F)c(Nc3ccc(Br)cc3Cl)c(C(=O)NOCCO)cc21 [AZD6244 (Selumetinib)]", "class name": "1 (yes)"}
{"compound": "CNC(=O)c1cc(Oc2ccc(NC(=O)Nc3ccc(Cl)c(C(F)(F)F)c3)c(F)c2)ccn1", "class name": "0 (no)"}
{"compound": "Cc1nc(N)sc1-c1ccnc(Nc2ccc(N3CCOCC3)cc2)n1", "class name": "1 (yes)"}

Dear colleague, could you confirm whether CCS(=O)(=O)c1cccc(-c2cc(C(=O)NC3CCN(C)CC3)c(C)c3[nH]c4ncc(C)cc4c23)c1 has TCF/Wnt firefly luciferase reporter signal at or above 1?
1 (yes)

I'd appreciate it if you could say whether Cc1ccc(NC(=O)c2ccc(CN3CCN(C)CC3)cc2)cc1Nc1nccc(-c2cccnc2)n1 [Imatinib Mesylate] has TCF/Wnt firefly luciferase reporter signal at least equal to 1.
1 (yes)

Hi team, for COCC(=O)NC/C=C/c1ccc2ncnc(Nc3ccc(Oc4ccc(C)nc4)c(C)c3)c2c1 , is the recorded TCF/Wnt firefly luciferase reporter signal at or above 1?
1 (yes)
